# assay-procedure: Primary phase half life in CD-1 mouse brain at 10 mg/kg, ip measured up to 8 hrs by LC-MS/MS analysis
# Type: ADME, organism-based
# protocol-conditions: read-out: alphat1/2 (converted)
measured-endpoint: half-life

# get_value(readout='half-life', item= COc1ccc2[nH]c(=O)c(C(c3nnnn3CCc3ccccc3)N3CCN(c4cccc(C(F)(F)F)c4)CC3)cc2c1 (stereo unspecified) )
3.5 h

----------
# assay-procedure: Half life in Wistar rat plasma at 5 mg/kg, iv measured up to 24 hrs by LC-MS/MS analysis
# Type: ADME, organism-based
measured-endpoint: half-life
Lab note: write values as number then unit, every time.

COc1ccc(NC(=O)C(=O)NCC(c2ccccc2)N2CCN(C)CC2)cc1 (configuration not stated)    0.651 h

Endpoint output: half-life of `COc1ccc(NC(=O)C(=O)N2CCN(c3ccccc3)CC2)cc1` . Value?
6.08 h

----------
# assay-procedure: Primary phase half life in CD-1 mouse plasma at 10 mg/kg, ip measured up to 8 hrs by LC-MS/MS analysis
# Type: ADME, organism-based
# protocol-conditions: read-out: alphat1/2 (converted)
measured-endpoint: half-life (h)
Please state the figure in h; there is no need to write the unit.

Fill in the blank: the reported half-life of COc1ccc2[nH]c(=O)c(C(c3nnnn3CCc3ccccc3)N3CCN(c4cccc(C(F)(F)F)c4)CC3)cc2c1 (stereo unspecified) is ____.
3

----------
# assay-procedure: Cmax in Wistar rat brain at 10 mg/kg, po measured up to 24 hrs by LC-MS/MS analysis
# Type: ADME, organism-based
# Set-up: dose 10 mg/kg, time < 24 hrs, route po
measured-endpoint: Cmax (ng/g)
The figure you give is taken to be in ng/g; do not add the unit.

COc1ccc(NC(=O)C(=O)N2CCN(c3ccccc3)CC2)cc1    25

Please report the recorded Cmax for COc1ccc(NC(=O)C(=O)NCC(c2ccccc2)N2CCN(C)CC2)cc1 (configuration not stated) .
1170

----------
Documented Tmax across a set of molecules
# assay-procedure: Tmax in Wistar rat plasma at 10 mg/kg, po measured up to 24 hrs by LC-MS/MS analysis
# Format: ADME, organism-based
I only need the number, in h, no unit after it.

COc1ccc(NC(=O)C(=O)NCC(c2ccccc2)N2CCN(C)CC2)cc1 (configuration not stated)    0.875

From here, focus on the item given below.
Please give the measured Tmax for this molecule: `COc1ccc(NC(=O)C(=O)N2CCN(c3ccccc3)CC2)cc1`
3.25

----------
# assay-procedure: Tmax in CD-1 mouse brain at 10 mg/kg, ip measured up to 8 hrs by LC-MS/MS analysis
# Format: ADME, organism-based
measured-endpoint: Tmax (min)
Only the number, expressed in min, is required.

Could you tell me which Tmax is on file for COc1ccc2[nH]c(=O)c(C(c3nnnn3CCc3ccccc3)N3CCN(c4cccc(C(F)(F)F)c4)CC3)cc2c1 (stereo unspecified) ?
30

----------
# assay-procedure: Lipophilicity, log P of the compound
# Assay type: physicochemical
# protocol-conditions: octanol/water
measured-endpoint: logP

COc1ccc2[nH]c(=O)c(C(c3nnnn3CCc3ccccc3)N3CCN(C4CCCCC4)CC3)cc2c1 (configuration not stated)    > 6

Name the recorded logP for COc1ccc2[nH]c(=O)c(C(c3nnnn3CCc3ccccc3)N3CCN(c4cccc(C(F)(F)F)c4)CC3)cc2c1 (configuration not stated) .
> 6
